Data origin, for the record: patent US11091559B2

Molecular target: murine ALK (purified mouse ALK antigen) (Mus musculus, UniProt P97793)
Sequence (P97793 19-1042 limits assumed): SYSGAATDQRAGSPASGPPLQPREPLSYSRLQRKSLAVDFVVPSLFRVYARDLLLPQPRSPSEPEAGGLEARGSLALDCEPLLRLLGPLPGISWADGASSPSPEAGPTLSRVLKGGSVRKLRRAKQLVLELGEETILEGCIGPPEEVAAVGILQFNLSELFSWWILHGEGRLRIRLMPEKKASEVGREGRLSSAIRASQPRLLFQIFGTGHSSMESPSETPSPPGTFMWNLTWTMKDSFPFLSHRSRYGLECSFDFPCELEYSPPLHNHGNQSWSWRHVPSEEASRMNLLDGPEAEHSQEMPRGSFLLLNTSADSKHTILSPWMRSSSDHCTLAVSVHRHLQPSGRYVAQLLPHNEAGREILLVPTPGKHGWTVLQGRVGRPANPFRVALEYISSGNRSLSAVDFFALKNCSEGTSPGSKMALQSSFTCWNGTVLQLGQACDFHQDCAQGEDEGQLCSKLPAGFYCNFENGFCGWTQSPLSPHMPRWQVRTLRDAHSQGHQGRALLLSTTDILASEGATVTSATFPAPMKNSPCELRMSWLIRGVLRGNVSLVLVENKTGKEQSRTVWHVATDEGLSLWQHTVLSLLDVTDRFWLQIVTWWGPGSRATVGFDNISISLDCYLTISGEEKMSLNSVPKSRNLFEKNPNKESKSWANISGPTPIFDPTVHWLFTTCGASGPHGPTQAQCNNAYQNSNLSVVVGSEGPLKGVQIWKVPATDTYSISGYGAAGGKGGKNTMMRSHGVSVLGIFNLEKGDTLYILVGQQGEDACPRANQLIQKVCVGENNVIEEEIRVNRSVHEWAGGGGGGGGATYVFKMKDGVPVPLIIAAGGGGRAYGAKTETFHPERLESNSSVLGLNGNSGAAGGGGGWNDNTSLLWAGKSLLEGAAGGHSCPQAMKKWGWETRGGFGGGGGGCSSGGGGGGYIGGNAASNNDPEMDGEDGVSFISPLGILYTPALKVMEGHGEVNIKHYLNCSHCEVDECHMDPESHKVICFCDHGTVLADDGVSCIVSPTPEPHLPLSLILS
Experiment: Mouse ALK cross-reactivity, solid-state ELISA
Type: binding
Design: key: − none; + weak; ++ moderate; +++ strong
Settings: cross-reactivity with murine ALK
MEASUREMENT_KIND: mouse ALK binding

>>> reported_value("Ab330: anti-ALK monoclonal antibody; VL SEQ ID NO: 415, VH SEQ ID NO: 416 (antibody, V domains shown, VH domain - Ab330; VL domain - Ab330) VH: EVQVVETGGGVVQPGKSLEITCATSGLTFSTAWMYWVRQSSDRRLEWIARIKDKSNKFASDYVESVRGRFTISRDDSRSSVYLQMNNLKEEDTATYYCTTSYGYAWGQGVMVTVSS VL: DIQMTQSPSSMSASLGDRVTITCQASQDIGNYLIWFQQKPGKSPRPLIYYATNLANGVPSRFSGSRSGSEYSLTITSLESEDMADYHCLQYKQHLTFGSGTKLEIER")
"+"
>>> reported_value("Ab331: anti-ALK monoclonal antibody; VL SEQ ID NO: 417, VH SEQ ID NO: 418 (antibody, V domains shown, VH domain - Ab331; VL domain - Ab331) VH: EVQVVETGGGVVQPGKSLEITCATSGLTFSTAWMYWVRQSSDRRLEWIARIKDKSNNFASDYVESVRGRFTISRDDSRSSVYLQMNNLKEEDTATYYCTTSYGYAWGQGVMVTVSS VL: DIQMTQSPSSMSASLGDRITITCQASQDIGNYLIWFQQKPGKSPRPLIYYATNLANGVPSRFSGSRSGSEYSLTITSLESEDMADYHCLQYKQHLTFGSGTKLEIER")
"−"
>>> reported_value("Ab329: anti-ALK monoclonal antibody; VL SEQ ID NO: 413, VH SEQ ID NO: 414 (antibody, V domains shown, VH domain - Ab329; VL domain - Ab329) VH: QVQLKESGPGLVKPSATLSLTCTVSGFSLTSYHVCWIRQTPGKGLEWMGVIWGDGRTTYNPPLKSRLSISRDTSKSQVFLKMSSLKTEDTATYYCARATMTGHGDAWGQGASVTVSS VL: DIQMTQSPASLSASLEEIVTITCQASQDIDNYLSWYQQKPGKSPHLLIHSATSLADGVPSRFSGGRSGTQFSLKINRLQVEDTGIYYCLQHYSGWTFGGGTKLELKR")
"+++"
